Biological target: Tribbles homolog 2 (Homo sapiens, UniProt Q92519)
Sequence (Q92519 whole entry): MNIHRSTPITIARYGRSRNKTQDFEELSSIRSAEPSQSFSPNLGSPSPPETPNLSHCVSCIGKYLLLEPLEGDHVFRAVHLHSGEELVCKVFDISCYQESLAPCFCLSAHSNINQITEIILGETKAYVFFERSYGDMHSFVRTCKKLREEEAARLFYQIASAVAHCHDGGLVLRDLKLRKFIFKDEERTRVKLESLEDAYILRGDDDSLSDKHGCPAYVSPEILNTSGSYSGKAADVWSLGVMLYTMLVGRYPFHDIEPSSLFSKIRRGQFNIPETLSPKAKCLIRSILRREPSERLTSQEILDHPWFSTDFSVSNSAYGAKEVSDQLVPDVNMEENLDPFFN
Assay: Inhibition of recombinant full-length human TRB2 using RRRFRPASPLRGP as substrate incubated for 120 mins in presence of [gamma33P]ATP by radiometric scintillation counting analysis

[
  {
    "smiles.data": "CN(C)c1ccc(C(=O)Nc2cccc(NC(=O)COc3ccc4c(=O)ccoc4c3)c2)cc1",
    "IC50": "> 10 µM"
  }
]

====

Biological target: Inhibitor of nuclear factor kappa-B kinase subunit alpha (Homo sapiens)
Sequence (O15111 whole entry): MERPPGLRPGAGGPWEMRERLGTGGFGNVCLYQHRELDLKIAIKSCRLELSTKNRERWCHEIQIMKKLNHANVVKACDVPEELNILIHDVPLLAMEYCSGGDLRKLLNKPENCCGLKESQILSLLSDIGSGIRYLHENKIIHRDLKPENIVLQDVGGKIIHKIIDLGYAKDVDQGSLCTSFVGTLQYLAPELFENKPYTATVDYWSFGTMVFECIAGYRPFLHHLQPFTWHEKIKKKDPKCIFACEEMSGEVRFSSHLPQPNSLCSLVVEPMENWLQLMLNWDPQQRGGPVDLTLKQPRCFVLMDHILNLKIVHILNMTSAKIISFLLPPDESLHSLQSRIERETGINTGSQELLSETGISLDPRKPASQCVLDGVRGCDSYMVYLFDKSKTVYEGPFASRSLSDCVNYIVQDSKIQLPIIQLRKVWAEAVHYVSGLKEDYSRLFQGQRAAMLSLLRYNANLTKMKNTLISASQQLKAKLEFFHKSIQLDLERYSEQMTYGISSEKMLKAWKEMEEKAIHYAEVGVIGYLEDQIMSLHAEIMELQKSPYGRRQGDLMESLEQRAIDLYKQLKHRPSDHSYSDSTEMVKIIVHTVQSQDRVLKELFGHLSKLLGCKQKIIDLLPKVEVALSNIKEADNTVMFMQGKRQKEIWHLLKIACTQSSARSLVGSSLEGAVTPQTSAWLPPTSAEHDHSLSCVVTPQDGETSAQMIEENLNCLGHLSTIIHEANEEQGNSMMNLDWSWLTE
Experiment: Inhibition of recombinant full length human IKKalpha using peptide substrate after 40 mins by [gamma-33ATP]by radiometric scintillation counting analysis
pIC50: −log10 of the molar value.

[
  {
    "smiles.data": "CN(C)c1ccc(C(=O)Nc2cccc(NC(=O)COc3ccc4c(=O)ccoc4c3)c2)cc1",
    "target.of.assay": "Inhibitor of nuclear factor kappa-B kinase subunit alpha (Homo sapiens)",
    "pIC50": "< 5.00"
  }
]
